# System: AR mRNA
# experimental-details: Dose-dependent antisense inhibition of human AR in HuVEC cells (electroporation, qRT-PCR RTS3559, IC50)
# Format: cell-based
# test-settings: 500.0 nM; HuVEC, ~16 h; Table 11
Oligonucleotides are written 5' to 3', each unit as a sugar letter and its base; * is a phosphorothioate linkage, no mark a phosphodiester; rarer units and linkages stand in square brackets, end groups in braces. Plain capitals give the bases only. e = 2'-O-(2-methoxyethyl) (MOE); k = constrained ethyl (cEt); [5mC] = 5-methylcytosine; d = 2'-deoxy (DNA)
Consider the following substances; for each one, report its percent inhibition of AR.
I only need the number, in %, no unit after it.

Suppose we examine the substance 579670 (antisense eT*kG*kA*eT*kT*kT*dA*dA*dT*dG*dG*dT*dT*kG*k[5mC]*kA) [compound 579670] ; what percent inhibition of AR value has been reported?
75

How about this substance: 579671 (antisense eT*kT*kG*eA*kT*kT*dT*dA*dA*dT*dG*dG*dT*kT*kG*k[5mC]) [compound 579671]
57

How about this substance: 579672 (antisense eG*kT*kT*eG*kA*kT*dT*dT*dA*dA*dT*dG*dG*kT*kT*kG) [compound 579672]
72

How about this substance: 549458 (kG*kT*kT*dG*dA*dT*dT*dT*dA*dA*dT*dG*dG*kT*kT*kG) [compound 549458]
64

How about this substance: 579669 (antisense eG*kG*kT*eT*eG*kA*kT*dT*dT*dA*dA*dT*dG*dG*kT*kT) [compound 579669]
74

* * *

# Test system: AR mRNA
# experimental-details: Dose-dependent antisense inhibition of human AR in HuVEC cells (electroporation, qRT-PCR RTS3559, IC50)
# Assay type: cell-based
# test-settings: 125.0 nM; HuVEC, ~16 h; Table 6
# Description: After a treatment period of approximately 16 hours, RNA was isolated from the cells and AR mRNA levels were measured by quantitative real-time PCR. Human AR primer probe set RTS3559 was used to measure mRNA levels. AR mRNA levels were adjusted according to total RNA content, as measured by RIBOGREEN®. […] After a treatment period of approximately 16 hours, RNA was isolated from the cells and AR mRNA levels were measured by quantitative real-time PCR. […]
Oligonucleotides are written 5' to 3', each unit as a sugar letter and its base; * is a phosphorothioate linkage, no mark a phosphodiester; rarer units and linkages stand in square brackets, end groups in braces. Plain capitals give the bases only. e = 2'-O-(2-methoxyethyl) (MOE); k = constrained ethyl (cEt); [5mC] = 5-methylcytosine; d = 2'-deoxy (DNA)
Mark Satisfied for reported percent inhibition of AR of 60% or greater; mark Not satisfied for anything smaller.

Determine whether this substance has percent inhibition of AR no lower than 60%: 549458 (kG*kT*kT*dG*dA*dT*dT*dT*dA*dA*dT*dG*dG*kT*kT*kG) [compound 549458]
Not satisfied

How about this substance: 560098 (kT*kG*kA*dT*dT*dT*dA*dA*dT*dG*dG*dT*dT*kG*k[5mC]*kA; further chemistry not given here) [compound 560098]
Satisfied

How about this substance: 549457 (kT*kT*kG*dA*dT*dT*dT*dA*dA*dT*dG*dG*dT*kT*kG*k[5mC]) [compound 549457]
Satisfied

How about this substance: 560100 (antisense kT*kG*kG*dT*dT*dG*dA*dT*dT*dT*dA*dA*dT*kG*kG*kT) [compound 560100]
Not satisfied

How about this substance: 560071 (eT*eG*eG*eT*eT*dG*dA*dT*dT*dT*dA*dA*dT*dG*dG*eT*eT*eG*e[5mC]*eA) [compound 560071]
Not satisfied

How about this substance: 549459 (kA*kT*kG*dG*dT*dT*dG*dA*dT*dT*dT*dA*dA*kT*kG*kG) [compound 549459]
Not satisfied

How about this substance: 560099 (kG*kG*kT*dT*dG*dA*dT*dT*dT*dA*dA*dT*dG*kG*kT*kT) [compound 560099]
Not satisfied

* * *

Consider the following substances; for each one, report its percent inhibition of AR.
# Tested on: AR mRNA
# experimental-details: Dose-dependent antisense inhibition of human AR in HuVEC cells (electroporation, qRT-PCR RTS3559, IC50)
# Assay type: cell-based
# test-settings: 1000.0 nM; HuVEC, ~16 h; Table 8
Oligonucleotides are written 5' to 3', each unit as a sugar letter and its base; * is a phosphorothioate linkage, no mark a phosphodiester; rarer units and linkages stand in square brackets, end groups in braces. Plain capitals give the bases only. e = 2'-O-(2-methoxyethyl) (MOE); k = constrained ethyl (cEt); [5mC] = 5-methylcytosine; d = 2'-deoxy (DNA)
I only need the number, in %, no unit after it.

Suppose we examine the substance 569213 (antisense kT*kG*kA*dT*dT*dT*dA*dA*dT*dG*dG*dT*kT*kG*k[5mC]*eA) [compound 569213] ; what percent inhibition of AR value has been reported?
96

How about this substance: 549458 (kG*kT*kT*dG*dA*dT*dT*dT*dA*dA*dT*dG*dG*kT*kT*kG) [compound 549458]
90

How about this substance: 549457 (kT*kT*kG*dA*dT*dT*dT*dA*dA*dT*dG*dG*dT*kT*kG*k[5mC]) [compound 549457]
96

How about this substance: 569228 (antisense eT*eT*kG*kA*kT*dT*dT*dA*dA*dT*dG*dG*kT*kT*kG*e[5mC]) [compound 569228]
92

* * *

# Tested on: TMPRSS2 mRNA
# experimental-details: TMPRSS2 mRNA levels in LMR20 cells
# Type: cell-based, human
# test-settings: LMR20 cells, R1881 10 nM 72 hrs, ASO 0.04 μM
Oligonucleotides are written 5' to 3', each unit as a sugar letter and its base; * is a phosphorothioate linkage, no mark a phosphodiester; rarer units and linkages stand in square brackets, end groups in braces. Plain capitals give the bases only. e = 2'-O-(2-methoxyethyl) (MOE); l = locked nucleic acid (LNA); k = constrained ethyl (cEt); [5mC] = 5-methylcytosine; d = 2'-deoxy (DNA)
test-readout: TMPRSS2 mRNA levels (% baseline value) after treatment with R1881
I only need the number, in % baseline value, no unit after it.

Suppose we examine the substance 560131 (antisense kT*kT*kG*dA*dT*dT*dT*dA*dA*dT*dG*dG*kT*kT*kG*e[5mC]) [compound 560131] ; what TMPRSS2 mRNA levels (% baseline value) after treatment with R1881 value has been reported?
132

How about this substance: 569236 (antisense eT*kG*kA*kT*dT*dT*dA*dA*dT*dG*dG*kT*kT*kG*e[5mC]*eA) [compound 569236]
126

How about this substance: 554221 (ACCAAGTTTCTTCAGC; sugars from the 5' end l3 d10 l3, all phosphorothioate, methylation of C not given here) [compound 554221]
136

How about this substance: 549458 (kG*kT*kT*dG*dA*dT*dT*dT*dA*dA*dT*dG*dG*kT*kT*kG) [compound 549458]
137

* * *

# Test system: prostate-specific antigen (PSA) mRNA
# experimental-details: PSA mRNA levels in LMR20 cells
# Format: cell-based, human
# test-settings: LMR20 cells, R1881 10 nM 72 hrs, ASO 0.04 μM
Oligonucleotides are written 5' to 3', each unit as a sugar letter and its base; * is a phosphorothioate linkage, no mark a phosphodiester; rarer units and linkages stand in square brackets, end groups in braces. Plain capitals give the bases only. e = 2'-O-(2-methoxyethyl) (MOE); l = locked nucleic acid (LNA); k = constrained ethyl (cEt); [5mC] = 5-methylcytosine; d = 2'-deoxy (DNA)
Consider the following substances; for each one, report its PSA mRNA levels (% baseline value) after treatment with R1881.
I only need the number, in % baseline value, no unit after it.

# query: PSA mRNA levels (% baseline value) after treatment with R1881 | item 549458 (kG*kT*kT*dG*dA*dT*dT*dT*dA*dA*dT*dG*dG*kT*kT*kG) [compound 549458] | system: prostate-specific antigen (PSA) mRNA
93

How about this substance: 560131 (antisense kT*kT*kG*dA*dT*dT*dT*dA*dA*dT*dG*dG*kT*kT*kG*e[5mC]) [compound 560131]
92

How about this substance: 569236 (antisense eT*kG*kA*kT*dT*dT*dA*dA*dT*dG*dG*kT*kT*kG*e[5mC]*eA) [compound 569236]
90

How about this substance: 554221 (ACCAAGTTTCTTCAGC; sugars from the 5' end l3 d10 l3, all phosphorothioate, methylation of C not given here) [compound 554221]
100

* * *

# Test system: AR mRNA
# experimental-details: Antisense inhibition of human AR in HuVEC cells, single concentration (electroporation, qRT-PCR RTS3559)
# Assay type: cell-based
# test-settings: 1,000 nM ASO, ~24 h, Table 13
Oligonucleotides are written 5' to 3', each unit as a sugar letter and its base; * is a phosphorothioate linkage, no mark a phosphodiester; rarer units and linkages stand in square brackets, end groups in braces. Plain capitals give the bases only. e = 2'-O-(2-methoxyethyl) (MOE); k = constrained ethyl (cEt); [5mC] = 5-methylcytosine; d = 2'-deoxy (DNA)
test-readout: % inhibition (%)
I only need the number, in %, no unit after it.

Suppose we examine the substance 586224 (kT*kT*kG*kA*kT*dT*dT*dA*dA*dT*dG*dG*dT*kT*kG*k[5mC]; antisense) [compound 586224] ; what % inhibition value has been reported?
90

How about this substance: 586225 (kG*kT*kT*kG*kA*dT*dT*dT*dA*dA*dT*dG*dG*kT*kT*kG; antisense) [compound 586225]
88

How about this substance: 585265 (eA*eA*kG*kT*dT*dG*dT*dA*dG*dT*dA*dG*kT*k[5mC]*eG*e[5mC]) [compound 585265]
69

How about this substance: 585262 (kA*kA*kG*dT*dT*dG*dT*dA*dG*dT*dA*dG*kT*k[5mC]*kG*e[5mC]) [compound 585262]
77

How about this substance: 585274 (kA*kA*kG*dT*dT*dG*dT*dA*dG*dT*dA*dG*dT*k[5mC]*kG*e[5mC]) [compound 585274]
65

How about this substance: 549372 (kA*kA*kG*dT*dT*dG*dT*dA*dG*dT*dA*dG*dT*k[5mC]*kG*k[5mC]) [compound 549372]
64

How about this substance: 585233 (kA*kG*kT*dT*dG*dT*dA*dG*dT*dA*dG*kT*e[5mC]*eG*e[5mC]*eG) [compound 585233]
69

How about this substance: 569223 (antisense eG*eT*kT*kG*kA*dT*dT*dT*dA*dA*dT*dG*dG*kT*kT*kG) [compound 569223]
59

How about this substance: 569220 (antisense eA*kT*kG*kG*dT*dT*dG*dA*dT*dT*dT*dA*kA*kT*kG*eG) [compound 569220]
58

How about this substance: 585259 (eA*kA*kG*kT*dT*dG*dT*dA*dG*dT*dA*dG*dT*k[5mC]*kG*k[5mC]) [compound 585259]
71

How about this substance: 585264 (kA*kA*kG*dT*dT*dG*dT*dA*dG*dT*kA*kG*kT*e[5mC]*eG*e[5mC]) [compound 585264]
62

How about this substance: 569238 (antisense eG*kT*kT*kG*dA*dT*dT*dT*dA*dA*dT*kG*kG*kT*eT*eG) [compound 569238]
51

How about this substance: 569215 (antisense kT*kG*kG*dT*dT*dG*dA*dT*dT*dT*dA*dA*kT*kG*kG*eT) [compound 569215]
59

How about this substance: 586124 (kG*kA*kT*dT*dT*dA*dA*dT*dG*dG*dT*dT*dG*k[5mC]*kA*kA; further chemistry not given here) [compound 586124]
82
